Target: T1, human CD25 (NP_000408.1) (Met 1-Cys 213) C-terminally fused with 6-histidine tag (human, UniProt P01589 22-213)
T1 construct: range 1-213; Expressed in CHO-K1 cells; also called human CD25-his
T1 sequence: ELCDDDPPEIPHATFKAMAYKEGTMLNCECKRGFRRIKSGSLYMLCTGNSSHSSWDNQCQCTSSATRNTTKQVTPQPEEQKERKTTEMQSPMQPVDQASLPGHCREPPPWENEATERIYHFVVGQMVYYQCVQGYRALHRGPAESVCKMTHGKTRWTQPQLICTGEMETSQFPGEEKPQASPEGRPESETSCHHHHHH
Experiment: SPR (BIAcore X100), human CD25-his captured by anti-histidine antibody, antibody as analyte, 1:1 model
readout.label: koff (s⁻¹)
Expressed in s⁻¹, but write only the number.

Challenge: State the recorded koff for this entry: humanized antibody 2046-18H1L1-m2 (antibody, human IgG1, kappa, V domains shown) VH: EVQLQESGPGLVKPSQTLSLTCTVSGYSITSDYAWNWIRQPPGKGLEWIGYISYSGITIYNPSLKSRVTISRDTSKNQFSLKLSSVTAADTAVYYCARWLLQIYYAMDYWGQGTLVTVSS VL: EIVLTQSPGTLSLSPGERATLSCSSSQSLVHSNGNTYLHWYQQKPGQAPRLLIYKVSNRFSGIPDRFSGSGSGTDFTLTISRLEPEDFAVYYCSQSTHVPLTFGQGTKLEIKR
Response given: 0.00137
